B1: POMT2 (parent)
chain: YHEAPMTRKHYQVTGYGINGTGDS

Variants of: B1
Assay: protein stability index of a GFP-peptide fusion (GPS, HEK-293T) (PSI 1-6); higher = more stable;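 further: lentivirally expressed fusions sorted by FACS into six bins by GFP to DsRed ratio, PSI derived from sequencing read proportions per bin multiplied by bin number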
Conditions: c terminus: a fixed tail appended
Threshold rule: protein stability index greater than or equal to 2 is t; below that, f.

Data request: Would you say Y1A shows protein stability index at minimum 2?
Data returned: t

Data request: Can you check R8P next?
Data returned: t

Data request: Likewise for S24N ?
Data returned: t

Data request: What do you have for G22H ?
Data returned: t

Data request: Next variant: H10P
Data returned: t

Data request: // repeat for I18N and report
Data returned: t

Data request: Okay, and T21V ?
Data returned: f

Data request: Quick one: Y16W
Data returned: f

Data request: Then what about the variant T14Y ?
Data returned: f

Data request: Similarly, Q12H ?
Data returned: t

Data request: // same read-out, input: G17L
Data returned: t
